Assay: Half life in CD-1 mouse plasma at 2 mg/kg, iv measured up to 8 hrs
Assay type: ADME, organism-based

chemical-smiles	half-life, min
COc1ccc(-c2ccc(CO[C@H]3C[C@@H](N=C=S)C3)nc2)cc1F	45.5

* * *

Target: N-acylethanolamine-hydrolyzing acid amidase (Homo sapiens)
Sequence (Q02083 29-125 limits assumed): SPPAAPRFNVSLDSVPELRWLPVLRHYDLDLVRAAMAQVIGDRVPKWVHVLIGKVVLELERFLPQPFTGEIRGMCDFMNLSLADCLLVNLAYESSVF
Sequence (Q02083 126-359 limits assumed): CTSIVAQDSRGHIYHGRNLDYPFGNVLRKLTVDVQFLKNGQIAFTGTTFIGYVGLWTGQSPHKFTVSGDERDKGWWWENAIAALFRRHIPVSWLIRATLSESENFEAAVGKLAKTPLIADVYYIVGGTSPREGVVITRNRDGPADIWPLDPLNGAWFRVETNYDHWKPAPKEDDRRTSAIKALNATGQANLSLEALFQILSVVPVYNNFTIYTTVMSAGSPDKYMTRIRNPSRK
Assay: Inhibition of human NAAA using N-(4-methyl coumarin)-palmitamide as fluorogenic substrate preincubated for 90 mins followed by substrate addition by fluorescence assay
parameter-measured: log10 IC50 (log10 of the value in nM)

compound	log10 IC50
COc1ccc(Oc2ccc(C(=O)N[C@H]3C[C@@H](N=C=S)C3)cc2)cc1	3.15
COc1ncccc1-c1ccc(CO[C@H]2C[C@@H](N=C=S)C2)c(F)c1	2.48
COc1ccc(-c2ccc(CO[C@H]3CC[C@@H](N=C=S)CC3)cc2)cc1F	2.59
Fc1cc(-c2cccc(C(F)(F)F)c2)ccc1CO[C@H]1C[C@@H](N=C=S)C1	1.83
COc1ccc(-c2ccc(O[C@H]3C[C@@H](N=C=S)C3)cc2)cc1F	1.56
COc1ccc(-c2ccc(S(=O)(=O)N[C@H]3C[C@@H](N=C=S)C3)cc2)cc1	0.36
S=C=N[C@H]1C[C@H](OCc2ccc(-c3ccccc3)cc2)C1	3.63
COc1ccc(-c2ccc(OC(=O)N[C@H]3C[C@@H](N=C=S)C3)cc2)cc1	0.85
COc1cc(-c2ccc(CO[C@H]3C[C@@H](N=C=S)C3)c(F)c2)ccc1F	2.19
COc1ccc(-c2ccc3c(c2)CN([C@H]2C[C@@H](N=C=S)C2)CC3)cc1F	2.55
COc1ccc(-c2ccc(CN3CC(N=C=S)C3)c(F)c2)cc1F	2.25
COc1ccc(-c2ccc(CO[C@H]3C[C@@H](N=C=S)C3)c(F)c2)cc1OC	1.77
Fc1cc(-c2ccc3c(c2)OCC3)ccc1CO[C@H]1C[C@@H](N=C=S)C1	1.77
COc1ccc(-c2ccc(COC3C[C@@H](N=C=S)C3(C)C)nc2)cc1F (single isomer, unassigned)	2.39
Fc1cc(-c2ccc3c(c2)OCCO3)ccc1CO[C@H]1C[C@@H](N=C=S)C1	1.07
COc1ccc(CCCCCC(=O)N[C@H]2C[C@@H](N=C=S)C2)cc1	1.35
COc1cccc(-c2ccc(CO[C@H]3C[C@@H](N=C=S)C3)cc2)c1	1.34
COc1ccc(-c2cnc(C(=O)N[C@H]3C[C@@H](N=C=S)C3)cn2)cc1	2.93
COc1ccc(-c2ccc(S(=O)(=O)N[C@H]3C[C@@H](N=C=S)C3)nc2)cc1	0.80
COc1ccc(C23CC(C(=O)N[C@H]4C[C@@H](N=C=S)C4)(C2)C3)cc1	2.11
COc1ccc(-c2ccc(C(C)O[C@H]3C[C@@H](N=C=S)C3)c(F)c2)cc1F (stereo partly drawn)	1.16
S=C=N[C@H]1C[C@@H](OCc2ccc(-c3ccccc3)cc2)C1	1.97
Cn1cc(-c2ccc(CO[C@H]3C[C@@H](N=C=S)C3)c(F)c2)cn1	2.71
Fc1cc(-c2ccc(OC(F)(F)F)c(F)c2)ccc1CO[C@H]1C[C@@H](N=C=S)C1	1.99
COc1ccc(-c2ccc(C(=O)N[C@]34C[C@](N=C=S)(C3)C4)c(F)c2)cc1	3.09
CN(Cc1ccc(-c2ccccc2)cc1)[C@H]1C[C@@H](N=C=S)C1	3.28
COc1ccc(CCCC(=O)N[C@H]2C[C@@H](N=C=S)C2)cc1	1.79
COc1ccc(-c2noc(CO[C@H]3C[C@@H](N=C=S)C3)n2)cc1	2.69
COc1cnc(-c2cnc(CO[C@H]3C[C@@H](N=C=S)C3)c(F)c2)cc1F	1.29
S=C=N[C@H]1C[C@@H](OCc2ccc(-c3ccc4occc4c3)cn2)C1	0.92
COc1ccc(-c2ccc(CO[C@]3(C)C[C@H](N=C=S)C3)c(F)c2)cc1F	2.68
COc1ccc(-c2ccc(C(=O)N[C@H]3C[C@@H](N=C=S)C3)nc2)cc1	0.88
COc1cnc(-c2ccc(CO[C@H]3C[C@@H](N=C=S)C3)[n+]([O-])c2)cc1F	1.37
